# system under test: Dipeptidyl peptidase 4 (Homo sapiens)
# measurement protocol: Inhibitory activity against Dipeptidylpeptidase IV mediated cleavage of Ala-Pro-7-amido-4-tri-fluoromethylcoumarin in a fluorogenic assay
pIC50: −log10 of the molar value.
recorded metric: pIC50

# annotated cases, reported pIC50 shown
INSERT INTO results (mol, recorded_metric, observed_result) VALUES
  ('NCc1c(N)nc(-c2ccccc2)nc1-c1cccc(C(F)(F)F)c1', 'pIC50', 3.77),
  ('Cc1ccccc1-c1nc(N)c(CN)c(-c2ccc(Cl)cc2Cl)n1', 'pIC50', 5.76),
  ('COc1ccccc1-c1nc(N)c(CN)c(-c2ccc(Cl)cc2Cl)n1', 'pIC50', 6.46);

[I] COc1ccc(-c2nc(-c3ccccc3)nc(N)c2CN)cc1
[II] NCc1c(N)nc(-c2ccc(F)cc2)nc1-c1ccc(Cl)cc1Cl
[III] NCc1c(N)nc(-c2ccc(F)c(F)c2)nc1-c1ccc(Cl)cc1Cl
[IV] NCc1c(N)nc(-c2ccccc2)nc1-c1ccc(F)cc1
Exercise: List these items ordered by pIC50, big to small. Reply with the item labels sorted in the order that was asked for.
Solution: II, III, IV, I

====

# system under test: Dipeptidyl peptidase 4 (Homo sapiens)
# measurement protocol: Inhibitory activity against Dipeptidylpeptidase IV mediated cleavage of Ala-Pro-7-amido-4-tri-fluoromethylcoumarin in a fluorogenic assay
recorded metric: IC50 (µM)

Example entries begin here.
INSERT INTO measurements (mol, recorded_metric, unit_tag, observed_result) VALUES
  ('NCc1c(N)nc(-c2ccccc2)nc1-c1ccc(C(F)(F)F)cc1', 'IC50', 'µM', 1.1),
  ('NCc1c(N)nc(-c2ccccc2)nc1-c1ccccc1F', 'IC50', 'µM', 14),
  ('NCc1c(N)nc(-c2ccc(Cl)cc2)nc1-c1ccc(Cl)cc1Cl', 'IC50', 'µM', 0.053);

[I] COc1cccc(-c2nc(-c3ccccc3)nc(N)c2CN)c1
[II] NCc1c(N)nc(-c2ccccc2)nc1-c1ccc(Cl)cc1Cl
Exercise: Parameter check: reported IC50 is higher for which label, I or II ? Your answer should be the label attached to the chosen record.
Solution: I
(I: 80 µM, II: 0.01 µM)

====

# system under test: Dipeptidyl peptidase 4 (Homo sapiens, UniProt P27487)
# Sequence (P27487 whole entry): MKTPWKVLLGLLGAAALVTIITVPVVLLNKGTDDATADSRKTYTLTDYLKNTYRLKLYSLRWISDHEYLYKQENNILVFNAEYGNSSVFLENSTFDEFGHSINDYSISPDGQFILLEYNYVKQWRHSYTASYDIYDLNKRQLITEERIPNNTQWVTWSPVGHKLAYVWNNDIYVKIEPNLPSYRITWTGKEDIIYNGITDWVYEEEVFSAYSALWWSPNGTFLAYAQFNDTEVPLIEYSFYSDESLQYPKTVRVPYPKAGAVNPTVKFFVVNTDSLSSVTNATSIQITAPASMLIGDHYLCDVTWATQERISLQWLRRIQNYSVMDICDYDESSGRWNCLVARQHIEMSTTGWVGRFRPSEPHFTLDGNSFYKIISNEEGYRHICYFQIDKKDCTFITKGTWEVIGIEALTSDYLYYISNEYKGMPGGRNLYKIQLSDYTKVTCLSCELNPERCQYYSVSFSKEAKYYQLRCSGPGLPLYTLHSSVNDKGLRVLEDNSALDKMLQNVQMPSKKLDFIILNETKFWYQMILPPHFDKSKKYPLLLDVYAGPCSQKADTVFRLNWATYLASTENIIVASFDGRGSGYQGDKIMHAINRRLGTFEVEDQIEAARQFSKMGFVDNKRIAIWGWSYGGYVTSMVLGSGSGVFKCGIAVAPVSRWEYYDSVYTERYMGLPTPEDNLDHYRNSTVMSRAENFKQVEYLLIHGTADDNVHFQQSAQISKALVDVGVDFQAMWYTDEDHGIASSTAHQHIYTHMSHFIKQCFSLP
# measurement protocol: Inhibitory activity against Dipeptidylpeptidase IV mediated cleavage of Ala-Pro-7-amido-4-tri-fluoromethylcoumarin in a fluorogenic assay
recorded metric: IC50 (nM)

INSERT INTO results (mol, system_under_test, recorded_metric, unit_tag, observed_result) VALUES
  ('COc1ccc(-c2nc(N)c(CN)c(-c3ccc(Cl)cc3Cl)n2)cc1', 'Dipeptidyl peptidase 4 (Homo sapiens, UniProt P27487)', 'IC50', 'nM', 100),
  ('NCc1c(N)nc(-c2ccccc2)nc1-c1ccc(Cl)cc1', 'Dipeptidyl peptidase 4 (Homo sapiens, UniProt P27487)', 'IC50', 'nM', 1400),
  ('NCc1c(N)nc(-c2ccccc2)nc1-c1cccc(Cl)c1', 'Dipeptidyl peptidase 4 (Homo sapiens, UniProt P27487)', 'IC50', 'nM', 31000),
  ('COc1cccc(-c2nc(N)c(CN)c(-c3ccc(Cl)cc3Cl)n2)c1', 'Dipeptidyl peptidase 4 (Homo sapiens, UniProt P27487)', 'IC50', 'nM', 340),
  ('Cc1ccc(-c2nc(N)c(CN)c(-c3ccc(Cl)cc3Cl)n2)cc1', 'Dipeptidyl peptidase 4 (Homo sapiens, UniProt P27487)', 'IC50', 'nM', 90),
  ('NCc1c(N)nc(-c2cccc(Cl)c2)nc1-c1ccc(Cl)cc1Cl', 'Dipeptidyl peptidase 4 (Homo sapiens, UniProt P27487)', 'IC50', 'nM', 240),
  ('NCc1c(N)nc(-c2ccccc2F)nc1-c1ccc(Cl)cc1Cl', 'Dipeptidyl peptidase 4 (Homo sapiens, UniProt P27487)', 'IC50', 'nM', 47),
  ('NCc1c(N)nc(-c2ccccc2)nc1-c1ccccc1C(F)(F)F', 'Dipeptidyl peptidase 4 (Homo sapiens, UniProt P27487)', 'IC50', 'nM', 14000),
  ('NCc1c(N)nc(-c2ccc(C(F)(F)F)cc2)nc1-c1ccc(Cl)cc1Cl', 'Dipeptidyl peptidase 4 (Homo sapiens, UniProt P27487)', 'IC50', 'nM', 180);

[P] Cc1ccc(-c2nc(-c3ccccc3)nc(N)c2CN)cc1
[Q] NCc1c(N)nc(-c2cccc(C(F)(F)F)c2)nc1-c1ccc(Cl)cc1Cl
Exercise: For the two items P and Q , which reports the higher IC50 value? Please reply using the label of the selected record.
Solution: P
(P: 1000 nM, Q: 130 nM)

====

# system under test: Dipeptidyl peptidase 4 (Homo sapiens)
# measurement protocol: Inhibitory activity against Dipeptidylpeptidase IV mediated cleavage of Ala-Pro-7-amido-4-tri-fluoromethylcoumarin in a fluorogenic assay
pIC50: −log10 of the molar value.
recorded metric: pIC50

Consider the following illustrative entries.
INSERT INTO assay_data (mol, system_under_test, recorded_metric, observed_result) VALUES
  ('Cc1ccccc1-c1nc(-c2ccccc2)nc(N)c1CN', 'Dipeptidyl peptidase 4 (Homo sapiens)', 'pIC50', 5.82),
  ('NCc1c(N)nc(-c2ccccc2)nc1-c1ccccc1', 'Dipeptidyl peptidase 4 (Homo sapiens)', 'pIC50', 4.38),
  ('NCc1c(N)nc(-c2ccccc2)nc1-c1cccc(F)c1', 'Dipeptidyl peptidase 4 (Homo sapiens)', 'pIC50', 4.40),
  ('Cc1cccc(-c2nc(-c3ccccc3)nc(N)c2CN)c1', 'Dipeptidyl peptidase 4 (Homo sapiens)', 'pIC50', 4.70);

[A] NCc1c(N)nc(-c2ccccc2)nc1-c1ccccc1Cl
[B] Cc1cccc(-c2nc(N)c(CN)c(-c3ccc(Cl)cc3Cl)n2)c1
Exercise: A or B : whose pIC50 is greater? // respond with label for picked entry
Solution: B
